B1: KLHL14 (parent)
chain: NETGYLSSVECYNLETNEWRYVSS

variants of: B1; assay: protein stability index of a GFP-peptide fusion (GPS, HEK-293T) (PSI 1-6); higher = more stable; details: c terminus: a fixed tail appended;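 note: lentivirally expressed fusions sorted by FACS into six bins by GFP to DsRed ratio, PSI derived from sequencing read proportions per bin multiplied by bin number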
measure: protein stability index

Please review the entries below; each comes with its answer.
[
  {
    "mutationId": "S8I",
    "protein stability index": 2.29
  },
  {
    "mutationId": "G4R",
    "protein stability index": 2.64
  },
  {
    "mutationId": "Y12C",
    "protein stability index": 3.36
  },
  {
    "mutationId": "S7A",
    "protein stability index": 3.42
  }
]

Lookup result for E2G ; measured protein stability index: 2.43

// Y5A : protein stability index value = 4.24

// sample W19Y , its protein stability index was 4.5

The variant identified as Y5W registered its protein stability index at 2.52
